// provenance: patent US6461587B1

assay: Relaxivity of compounds according to the invention; type: physicochemical; settings: plasma, 0.47 T and 37° C.
TEST READOUT: R1 in Plasma (L/mmol/s)
Supply the numeric figure in L/mmol/s, leaving out any unit text.

Field: example entries. Status: answers known.
molecule="CC(C(=O)NCC(=O)N(CCOCCC(F)(F)C(F)(F)C(F)(F)C(F)(F)C(F)(F)C(F)(F)C(F)(F)C(F)(F)F)CC(O)CO)N1CCN(CC(=O)[O-])CCN(CC(=O)[O-])CCN(CC(=O)[O-])CC1.[Gd+3] (stereo not shown)" test_readout="R1 in Plasma" observed_result=19.6
molecule="CC(C(=O)NCC(=O)NCCOCCC(F)(F)C(F)(F)C(F)(F)C(F)(F)C(F)(F)C(F)(F)C(F)(F)C(F)(F)F)N1CCN(CC(=O)[O-])CCN(CC(=O)[O-])CCN(CC(=O)[O-])CC1.[Gd+3] (stereo not shown)" test_readout="R1 in Plasma" observed_result=21.0
molecule="CC(C(=O)NCC(=O)NCCNS(=O)(=O)C(F)(F)C(F)(F)C(F)(F)C(F)(F)C(F)(F)C(F)(F)C(F)(F)C(F)(F)F)N1CCN(CC(=O)[O-])CCN(CC(=O)[O-])CCN(CC(=O)[O-])CC1.[Gd+3] (stereo not shown) [Example 10c]" test_readout="R1 in Plasma" observed_result=27.8
molecule="CC(C(=O)NCC(=O)N(CCOCCO)CCOCCC(F)(F)C(F)(F)C(F)(F)C(F)(F)C(F)(F)C(F)(F)C(F)(F)C(F)(F)F)N1CCN(CC(=O)[O-])CCN(CC(=O)[O-])CCN(CC(=O)[O-])CC1.[Gd+3] (stereo not shown)" test_readout="R1 in Plasma" observed_result=21.0
molecule="COCCN(CCOCCC(F)(F)C(F)(F)C(F)(F)C(F)(F)C(F)(F)C(F)(F)C(F)(F)C(F)(F)F)C(=O)CNC(=O)C(C)N1CCN(CC(=O)[O-])CCN(CC(=O)[O-])CCN(CC(=O)[O-])CC1.[Gd+3] (stereo not shown)" test_readout="R1 in Plasma" observed_result=25.7

stdin: Value lookup for R1 in Plasma; key = CC(C(=O)NCC(=O)N(CCO)CCOCCC(F)(F)C(F)(F)C(F)(F)C(F)(F)C(F)(F)C(F)(F)C(F)(F)C(F)(F)F)N1CCN(CC(=O)[O-])CCN(CC(=O)[O-])CCN(CC(=O)[O-])CC1.[Gd+3] (stereo not shown)
stdout: 21.9

stdin: Next entry: COCCOCCOCCOCCOCCN(CCOCCC(F)(F)C(F)(F)C(F)(F)C(F)(F)C(F)(F)C(F)(F)C(F)(F)C(F)(F)F)C(=O)CNC(=O)C(C)N1CCN(CC(=O)[O-])CCN(CC(=O)[O-])CCN(CC(=O)[O-])CC1.[Gd+3] (stereo not shown)
stdout: 30.3

* * *

experiment: Compatibility of compounds according to the invention (LD 50); details: in vivo
Catalogue of LD 50 values

Field: example entries. Status: answers known.
compound="CC(C(=O)NCC(=O)N(CCOCCC(F)(F)C(F)(F)C(F)(F)C(F)(F)C(F)(F)C(F)(F)C(F)(F)C(F)(F)F)CC(O)CO)N1CCN(CC(=O)[O-])CCN(CC(=O)[O-])CCN(CC(=O)[O-])CC1.[Gd+3] (stereo not shown) [Example 2c]" test_readout="LD 50" observed_result="3 mmol of Gd/kg of body weight"
compound="COCCOCCOCCOCCOCCN(CCOCCC(F)(F)C(F)(F)C(F)(F)C(F)(F)C(F)(F)C(F)(F)C(F)(F)C(F)(F)F)C(=O)CNC(=O)C(C)N1CCN(CC(=O)[O-])CCN(CC(=O)[O-])CCN(CC(=O)[O-])CC1.[Gd+3] (stereo not shown) [Example 5e]" test_readout="LD 50" observed_result="15 mmol of Gd/kg of body weight"
compound="CC(C(=O)NCC(=O)N(CCO)CCOCCC(F)(F)C(F)(F)C(F)(F)C(F)(F)C(F)(F)C(F)(F)C(F)(F)C(F)(F)F)N1CCN(CC(=O)[O-])CCN(CC(=O)[O-])CCN(CC(=O)[O-])CC1.[Gd+3] (stereo not shown) [Example 4c]" test_readout="LD 50" observed_result="0.3 mmol of Gd/kg of body weight"

# input for lookup
stdin: Value lookup for LD 50; key = CC(C(=O)NCC(=O)N(CCOCCO)CCOCCC(F)(F)C(F)(F)C(F)(F)C(F)(F)C(F)(F)C(F)(F)C(F)(F)C(F)(F)F)N1CCN(CC(=O)[O-])CCN(CC(=O)[O-])CCN(CC(=O)[O-])CC1.[Gd+3] (stereo not shown) [Example 3c]
stdout: 8 mmol of Gd/kg of body weight

* * *

experiment: Relaxivity of compounds according to the invention; format: physicochemical; settings: water, 0.47 T and 37° C.
TEST READOUT: R1 in Water
Could you give the number and then its unit, please?

Field: example entries. Status: answers known.
molecule="COCCN(CCOCCC(F)(F)C(F)(F)C(F)(F)C(F)(F)C(F)(F)C(F)(F)C(F)(F)C(F)(F)F)C(=O)CNC(=O)C(C)N1CCN(CC(=O)[O-])CCN(CC(=O)[O-])CCN(CC(=O)[O-])CC1.[Gd+3] (stereo not shown)" test_readout="R1 in Water" observed_result="13.8 L/mmol/s"
molecule="CC(C(=O)NCC(=O)NCCOCCC(F)(F)C(F)(F)C(F)(F)C(F)(F)C(F)(F)C(F)(F)C(F)(F)C(F)(F)F)N1CCN(CC(=O)[O-])CCN(CC(=O)[O-])CCN(CC(=O)[O-])CC1.[Gd+3] (stereo not shown)" test_readout="R1 in Water" observed_result="18.1 L/mmol/s"
molecule="CC(C(=O)NCC(=O)N(CCO)CCOCCC(F)(F)C(F)(F)C(F)(F)C(F)(F)C(F)(F)C(F)(F)C(F)(F)C(F)(F)F)N1CCN(CC(=O)[O-])CCN(CC(=O)[O-])CCN(CC(=O)[O-])CC1.[Gd+3] (stereo not shown)" test_readout="R1 in Water" observed_result="14.4 L/mmol/s"

stdin: Value lookup for R1 in Water; key = CC(C(=O)NCC(=O)N(CCOCCO)CCOCCC(F)(F)C(F)(F)C(F)(F)C(F)(F)C(F)(F)C(F)(F)C(F)(F)C(F)(F)F)N1CCN(CC(=O)[O-])CCN(CC(=O)[O-])CCN(CC(=O)[O-])CC1.[Gd+3] (stereo not shown)
stdout: 14.0 L/mmol/s

stdin: Next entry: CC(C(=O)NCC(=O)NCCNS(=O)(=O)C(F)(F)C(F)(F)C(F)(F)C(F)(F)C(F)(F)C(F)(F)C(F)(F)C(F)(F)F)N1CCN(CC(=O)[O-])CCN(CC(=O)[O-])CCN(CC(=O)[O-])CC1.[Gd+3] (stereo not shown) [Example 10c]
stdout: 21.6 L/mmol/s

stdin: Next entry: CC(C(=O)NCC(=O)N(CCOCCC(F)(F)C(F)(F)C(F)(F)C(F)(F)C(F)(F)C(F)(F)C(F)(F)C(F)(F)F)CC(O)CO)N1CCN(CC(=O)[O-])CCN(CC(=O)[O-])CCN(CC(=O)[O-])CC1.[Gd+3] (stereo not shown)
stdout: 11.8 L/mmol/s

stdin: Next entry: COCCOCCOCCOCCOCCN(CCOCCC(F)(F)C(F)(F)C(F)(F)C(F)(F)C(F)(F)C(F)(F)C(F)(F)C(F)(F)F)C(=O)CNC(=O)C(C)N1CCN(CC(=O)[O-])CCN(CC(=O)[O-])CCN(CC(=O)[O-])CC1.[Gd+3] (stereo not shown)
stdout: 12.4 L/mmol/s
